- experimentalTarget: monkey GPC3 on HEK293T-monkey GPC3 cells (monkey)
- protocolDetails: FACS on HEK293T-monkey GPC3 cells
measureName: EC50 (nM)
Kindly answer with a numeric value in nM, unit omitted.

Lookup: What value of EC50 has been reported for the following binder? hAb001H1aL1a (antibody, human IgG1, V domains shown) VH: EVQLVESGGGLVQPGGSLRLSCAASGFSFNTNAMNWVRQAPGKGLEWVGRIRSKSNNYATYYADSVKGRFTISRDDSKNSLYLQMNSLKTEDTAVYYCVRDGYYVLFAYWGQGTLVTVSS VL: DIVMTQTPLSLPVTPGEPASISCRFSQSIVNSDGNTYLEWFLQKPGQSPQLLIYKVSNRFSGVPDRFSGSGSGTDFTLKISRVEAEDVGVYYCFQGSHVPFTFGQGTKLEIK
Found: 1.68

Lookup: Fill blank: measured EC50 of the binder hAb003LH3L1 (antibody, human IgG1, V domains shown) VH: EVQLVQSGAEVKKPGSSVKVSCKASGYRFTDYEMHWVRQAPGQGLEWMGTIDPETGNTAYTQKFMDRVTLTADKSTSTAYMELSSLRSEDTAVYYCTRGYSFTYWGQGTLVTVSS VL: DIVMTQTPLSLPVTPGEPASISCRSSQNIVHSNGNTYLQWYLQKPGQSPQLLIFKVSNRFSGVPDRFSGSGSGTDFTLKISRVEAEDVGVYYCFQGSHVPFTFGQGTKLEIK is ____.
Found: 1.58
